System: ZR-75-1
experiment-description: ZR-75-1 proliferation assay (CellTiter-Glo, day 14)
Type: cell-based
reported-conditions: Homo sapiens, 336 h; ZR-75-1 proliferation, CTG assay day 14
assay-endpoint: IC50 (nM)

sample-smiles	result-number
Cc1ccc(S(=O)(=O)Nc2noc3cc(Cn4cccn4)c4c(c23)OCCC4)c(OCC(F)(F)F)c1	2.6
COc1cccc(OC)c1S(=O)(=O)Nc1noc2cc(Cn3cccn3)c3c(c12)OC(F)(F)O3	0.9
COc1ccccc1S(=O)(=O)Nc1noc2cc(Cn3cccn3)c3c(c12)OCCC3	1.9
COc1ccc(F)cc1S(=O)(=O)Nc1noc2cc(Cn3cccn3)c3c(c12)OCCC3	1.6

---

Listed next: entries and their corresponding bioavailability.
experiment-description: Pharmacokinetic evaluation in C57 mice
Assay type: in vivo
reported-conditions: both sexes, mouse, plasma, oral, i.g. 2.0 mg/kg vs i.v. 1.0 mg/kg, read-out: Bioavailability F (%)

sample-smiles	bioavailability (%)
COc1ccccc1S(=O)(=O)Nc1noc2cc(Cn3cccn3)c3c(c12)OCCC3	94.1
COc1cccc(OC)c1S(=O)(=O)Nc1noc2cc(Cn3cccn3)c3c(c12)OCCC3	108

---

Listed next: entries and their corresponding CL/F.
experiment-description: Pharmacokinetic evaluation in SD rats
Assay type: in vivo
reported-conditions: both sexes, rat, plasma, po, i.g., 2.0 mg/kg, read-out: Clearance rate CL/F
Description: Test Example 5: Pharmacokinetic Evaluation SD rats were used as test animals. After intragastric (i.g.) administration of the compounds of the present disclosure to SD rats, the plasma concentrations at different time points were measured by the LC/MS/MS method. The pharmacokinetic behavior of the compounds of the present disclosure in SD rats was studied, and their pharmacokinetic profiles were evaluated. Compound 2, compound 7, compound 21, and compound 23. […]

sample-smiles	readout-units	CL/F
Cc1ccc(S(=O)(=O)Nc2noc3cc(Cn4cccn4)c4c(c23)OCC4)c(OCC(F)(F)F)c1	mL/min/kg	0.788
COc1cccc(OC(F)(F)F)c1S(=O)(=O)Nc1noc2cc(Cn3cccn3)c3c(c12)OCC3	mL/min/kg	0.431
CCOc1cc(C)ccc1S(=O)(=O)Nc1noc2cc(Cn3cccn3)c3c(c12)OCCC3	mL/min/kg	0.614
COc1cccc(OC)c1S(=O)(=O)Nc1noc2cc(Cn3cccn3)c3c(c12)OCCC3	mL/min/kg	0.8

---

human KAT6A (Homo sapiens (Human)): reported pIC50 for various molecules.
Sequence (Q92794 whole entry): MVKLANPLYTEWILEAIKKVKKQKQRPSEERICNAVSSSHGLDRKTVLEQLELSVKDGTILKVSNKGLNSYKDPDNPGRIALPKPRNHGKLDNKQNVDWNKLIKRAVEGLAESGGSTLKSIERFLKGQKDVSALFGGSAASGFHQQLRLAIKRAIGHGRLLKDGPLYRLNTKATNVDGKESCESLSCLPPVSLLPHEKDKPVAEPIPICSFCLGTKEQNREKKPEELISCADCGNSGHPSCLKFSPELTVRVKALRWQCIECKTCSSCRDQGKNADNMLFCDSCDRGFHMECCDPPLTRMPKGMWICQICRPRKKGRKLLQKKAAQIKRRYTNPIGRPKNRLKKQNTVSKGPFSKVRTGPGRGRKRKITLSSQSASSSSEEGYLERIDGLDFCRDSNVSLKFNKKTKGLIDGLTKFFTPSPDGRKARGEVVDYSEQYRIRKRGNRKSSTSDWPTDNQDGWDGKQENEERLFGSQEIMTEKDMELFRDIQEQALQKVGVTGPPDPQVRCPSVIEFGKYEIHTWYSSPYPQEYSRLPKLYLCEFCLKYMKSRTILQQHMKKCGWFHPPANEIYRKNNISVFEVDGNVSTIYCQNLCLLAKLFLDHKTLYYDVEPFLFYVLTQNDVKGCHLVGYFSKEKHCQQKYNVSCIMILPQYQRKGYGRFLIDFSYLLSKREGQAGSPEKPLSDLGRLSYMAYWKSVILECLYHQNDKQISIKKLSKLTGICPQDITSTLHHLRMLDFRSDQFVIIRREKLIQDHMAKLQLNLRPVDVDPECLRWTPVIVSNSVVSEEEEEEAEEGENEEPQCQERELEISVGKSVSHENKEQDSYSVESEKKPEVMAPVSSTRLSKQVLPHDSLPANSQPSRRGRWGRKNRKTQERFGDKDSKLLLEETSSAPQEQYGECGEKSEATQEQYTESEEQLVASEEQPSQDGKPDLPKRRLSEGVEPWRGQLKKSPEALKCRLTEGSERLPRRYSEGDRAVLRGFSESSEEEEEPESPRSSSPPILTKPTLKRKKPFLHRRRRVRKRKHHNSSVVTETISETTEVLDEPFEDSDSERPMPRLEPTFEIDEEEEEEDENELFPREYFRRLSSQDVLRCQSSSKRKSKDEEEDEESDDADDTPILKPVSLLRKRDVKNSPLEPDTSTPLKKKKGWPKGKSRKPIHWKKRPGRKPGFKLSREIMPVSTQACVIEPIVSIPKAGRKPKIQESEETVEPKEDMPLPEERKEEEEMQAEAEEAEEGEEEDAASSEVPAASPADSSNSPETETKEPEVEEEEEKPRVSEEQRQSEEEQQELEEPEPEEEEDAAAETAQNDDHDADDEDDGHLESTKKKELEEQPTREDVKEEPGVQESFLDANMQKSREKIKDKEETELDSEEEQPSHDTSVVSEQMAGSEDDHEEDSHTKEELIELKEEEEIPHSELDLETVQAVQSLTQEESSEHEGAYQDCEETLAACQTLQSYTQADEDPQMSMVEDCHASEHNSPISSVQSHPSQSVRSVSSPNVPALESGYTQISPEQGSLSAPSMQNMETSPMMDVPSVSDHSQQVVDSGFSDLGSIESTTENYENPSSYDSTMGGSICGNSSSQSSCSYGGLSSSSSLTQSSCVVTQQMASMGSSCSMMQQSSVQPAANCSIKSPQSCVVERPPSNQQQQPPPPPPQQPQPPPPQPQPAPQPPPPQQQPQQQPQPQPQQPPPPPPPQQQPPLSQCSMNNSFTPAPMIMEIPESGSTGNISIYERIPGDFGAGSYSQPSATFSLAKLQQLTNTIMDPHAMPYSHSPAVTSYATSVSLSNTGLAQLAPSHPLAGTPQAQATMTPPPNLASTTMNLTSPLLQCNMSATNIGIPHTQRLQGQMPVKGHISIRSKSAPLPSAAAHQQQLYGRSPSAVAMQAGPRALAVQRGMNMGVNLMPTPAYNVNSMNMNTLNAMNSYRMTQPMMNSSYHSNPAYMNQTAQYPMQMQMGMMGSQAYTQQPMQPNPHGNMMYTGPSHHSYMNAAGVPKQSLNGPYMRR
pIC50: −log10 of the molar value.

sample-smiles	pIC50
COc1cc2c(cc1S(=O)(=O)Nc1noc3cc(Cn4cccn4)c4c(c13)OCCC4)CCC2	9.40
COc1ccccc1S(=O)(=O)Nc1noc2cc(Cn3cccn3)c3c(c12)OCCC3	9.30
COc1cccc(C)c1S(=O)(=O)Nc1noc2cc(Cn3cccn3)c3c(c12)OCC3	7.98
CCOc1cc(C)ccc1S(=O)(=O)Nc1noc2cc(Cn3cccn3)c3c(c12)OCCC3	9.30
Cc1ccc(S(=O)(=O)Nc2noc3cc(Cn4cccn4)c4c(c23)OCCC4)c(OCC(F)(F)F)c1	9.15
COc1cccc(OC)c1S(=O)(=O)Nc1noc2cc(Cn3cccn3)c3c(c12)OCC3	9.22
COc1ccc(F)cc1S(=O)(=O)Nc1noc2cc(Cn3cccn3)c3c(c12)OCCC3	9.15
COc1cccc(OC(F)(F)F)c1S(=O)(=O)Nc1noc2cc(Cn3cccn3)c3c(c12)OCC3	8.32
COc1cccc(OC)c1S(=O)(=O)Nc1noc2cc([C@H]3CCCO3)c3c(c12)OCC3	8.28

---

experiment-description: Pharmacokinetic evaluation in SD rats
Type: in vivo
reported-conditions: both sexes, rat, plasma, po, i.g., 2.0 mg/kg, read-out: Plasma concentration Cmax
Method: Test Example 5: Pharmacokinetic Evaluation SD rats were used as test animals. After intragastric (i.g.) administration of the compounds of the present disclosure to SD rats, the plasma concentrations at different time points were measured by the LC/MS/MS method. The pharmacokinetic behavior of the compounds of the present disclosure in SD rats was studied, and their pharmacokinetic profiles were evaluated. Compound 2, compound 7, compound 21, and compound 23. […]
assay-endpoint: Cmax (ng/mL)

sample-smiles	result-number
COc1cccc(OC(F)(F)F)c1S(=O)(=O)Nc1noc2cc(Cn3cccn3)c3c(c12)OCC3	6240
CCOc1cc(C)ccc1S(=O)(=O)Nc1noc2cc(Cn3cccn3)c3c(c12)OCCC3	9200
COc1cccc(OC)c1S(=O)(=O)Nc1noc2cc(Cn3cccn3)c3c(c12)OCCC3	8210
Cc1ccc(S(=O)(=O)Nc2noc3cc(Cn4cccn4)c4c(c23)OCC4)c(OCC(F)(F)F)c1	4310
